# experimental_target: Recombinant human GST-tagged Kat6b protein (431-end)
# assay_info: Kat6b activity assay (TR-FRET, acetylation of biotinylated Histone-H4-derived peptide)
# assay_setup: 30 mins at 22° C., read-out: KAT6B activity assay IC50 [mol/l] (arithmetic mean)
readout_kind: IC50 (nM)

I: CCOc1cccc(-c2ccccc2)c1S(=O)(=O)NC(=O)c1cc2ccc(N(C)C)cc2o1
II: CCOc1ccc(CC)cc1S(=O)(=O)NC(=O)c1cc2ccc(N(C)C)cc2o1
III: CCCCN(CCCC)c1ccc2cc(C(=O)NS(=O)(=O)c3ccccc3-c3ccccc3)oc2c1
Returns the items ordered by IC50, from maximum to minimum. Sort the labels as requested; that list is your answer.
III, I, II
(III: 2560 nM, I: 68.8 nM, II: 43.1 nM)

----------
# experimental_target: Recombinant human His-tagged Kat6a protein (amino acids 194-810) (Homo sapiens (Human))
# Sequence (Q92794 194-810): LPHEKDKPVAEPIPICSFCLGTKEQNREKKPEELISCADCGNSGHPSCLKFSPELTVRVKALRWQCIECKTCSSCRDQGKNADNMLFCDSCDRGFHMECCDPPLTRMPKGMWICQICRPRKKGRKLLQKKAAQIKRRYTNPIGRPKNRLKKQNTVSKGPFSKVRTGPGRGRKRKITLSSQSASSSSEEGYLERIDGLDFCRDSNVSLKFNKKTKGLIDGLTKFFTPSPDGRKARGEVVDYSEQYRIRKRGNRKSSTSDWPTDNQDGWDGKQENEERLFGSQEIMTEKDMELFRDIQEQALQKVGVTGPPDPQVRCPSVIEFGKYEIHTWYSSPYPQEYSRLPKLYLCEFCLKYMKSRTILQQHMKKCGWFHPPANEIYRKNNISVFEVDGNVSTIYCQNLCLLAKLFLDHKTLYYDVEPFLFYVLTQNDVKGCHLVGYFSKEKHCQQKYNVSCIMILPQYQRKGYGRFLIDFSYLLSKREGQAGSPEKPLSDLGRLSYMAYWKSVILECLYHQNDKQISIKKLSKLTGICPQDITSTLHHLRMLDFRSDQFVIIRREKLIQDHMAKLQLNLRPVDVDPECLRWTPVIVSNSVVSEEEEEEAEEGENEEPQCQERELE
# assay_info: Kat6a activity assay (TR-FRET, acetylation of biotinylated Histone-H4-derived peptide)
# assay_setup: 60 mins at 22° C., read-out: KAT6A-DPF/HAT domain IC50 [mol/l] (arithmetic mean)
pIC50: −log10 of the molar value.
readout_kind: pIC50

INSERT INTO measurements (compound, quantitative_result) VALUES
  ('CCOc1cccc(F)c1S(=O)(=O)NC(=O)c1cc2ccc(N(C)C)cc2o1', 6.56),
  ('COc1ccc(Cl)cc1S(=O)(=O)NC(=O)c1cc2ccc(N(C)C)cc2o1', 6.91),
  ('Nc1ccc2cc(C(=O)NS(=O)(=O)c3ccccc3-c3ccccc3)oc2c1', 5.97),
  ('CN(C)c1ccc2cc(C(=O)NS(=O)(=O)c3ccccc3O)oc2c1', 7.06),
  ('CCNc1ccc2cc(C(=O)NS(=O)(=O)c3ccccc3OCC)oc2c1', 5.95);

A: CN(C)c1ccc2cc(C(=O)NS(=O)(=O)c3ccccc3Br)oc2c1
B: CCOc1ccc(Br)cc1S(=O)(=O)NC(=O)c1cc2c(F)cc(N(C)C)cc2o1
C: Cc1ccnc2c(S(=O)(=O)NC(=O)c3cc4ccc(N(C)C)cc4o3)cccc12
D: CN(C)c1ccc2cc(C(=O)NS(=O)(=O)c3cccc4c3OC(F)(F)C(F)(F)O4)oc2c1
E: Cc1ccccc1S(=O)(=O)NC(=O)c1cc2ccc(N(C)C)cc2o1
// ascending sort on recorded pIC50 Sort the labels as requested; that list is your answer.
E, A, C, D, B

A: CCCOc1ccccc1S(=O)(=O)NC(=O)c1cc2ccc(N(C)C)cc2o1
B: CN(C)c1cc2oc(C(=O)NS(=O)(=O)c3ccccc3-c3ccccc3)cc2cc1Cl
C: CN(C)c1ccc2cc(C(=O)NS(=O)(=O)c3ccccc3OCC(F)(F)F)oc2c1
D: Cc1ccc2cccc(S(=O)(=O)NC(=O)c3cc4ccc(N(C)C)cc4o3)c2n1 [Example 225]
E: CN(C)c1ccc2cc(C(=O)NS(=O)(=O)c3ccccc3OC(F)(F)C(F)(F)F)oc2c1
// ascending sort on recorded pIC50 Sort the labels as requested; that list is your answer.
B, E, C, A, D
(B: 5.61, E: 6.59, C: 6.89, A: 7.10, D: 7.64)

I: CCOc1cccc(-c2ccccc2)c1S(=O)(=O)NC(=O)c1cc2ccc(N(C)C)cc2o1
II: CN(C)c1ccc2cc(C(=O)NS(=O)(=O)c3c(F)cccc3OCC3CC3)oc2c1
Short answer wanted: higher pIC50, I or II ? Reply with the label of the item you choose.
I

1: CC(c1ccc(Cl)cc1Cl)S(=O)(=O)NC(=O)c1cc2ccc(N(C)C)cc2o1 (racemic)
2: CCOc1ccccc1S(=O)(=O)NC(=O)c1cc2cc(F)c(N(C)C)cc2o1
Smaller pIC50 value? Options are 1 and 2 Reply with the label of the item you choose.
2
(2: 5.39, 1: 7.06)

----------
# Tested on: ZR-75-1 cells
# assay_info: Proliferation assay ZR-75-1 (Alamar Blue, 144 h)
# Type: cell-based
# assay_setup: Homo sapiens, ZR-75-1, 144 h, arithmetic mean, read-out: ZR75-1 proliferation assay, EC50 [M] (arithmetic mean)
Some compounds, each annotated with its measured EC50.
Kindly provide the numeric value in M only, without the unit symbol.

Study these solved cases before continuing.
INSERT INTO results (smiles_repr, experimental_target, quantitative_result) VALUES
  ('CCCOc1ccc(C)cc1S(=O)(=O)NC(=O)c1cc2ccc(N(C)C)cc2o1', 'ZR-75-1 cells', '7.02e-08'),
  ('Cc1cccc(C2CCCC2)c1S(=O)(=O)NC(=O)c1cc2ccc(N(C)C)cc2o1', 'ZR-75-1 cells', '9.45e-06'),
  ('Cc1ccnc2c(S(=O)(=O)NC(=O)c3cc4ccc(N(C)C)cc4o3)cccc12', 'ZR-75-1 cells', '7.79e-07'),
  ('CCN(C)c1ccc2cc(C(=O)NS(=O)(=O)c3ccc(Cl)cc3Cl)oc2c1', 'ZR-75-1 cells', '2e-05'),
  ('CCOc1ccc([N+](=O)[O-])cc1S(=O)(=O)NC(=O)c1cc2ccc(N(C)C)cc2o1', 'ZR-75-1 cells', '3.2e-07'),
  ('CCOc1ccccc1S(=O)(=O)NC(=O)c1cc2cc(F)c(N(C)C)cc2o1', 'ZR-75-1 cells', '7.2e-06');

Pending compound:
So for CCCCCOc1ccccc1S(=O)(=O)NC(=O)c1cc2ccc(N(C)C)cc2o1 , the logged EC50 turned out to be 8.08e-07

----------
# Tested on: ZR-75-1 cells
# assay_info: Proliferation assay ZR-75-1 (Alamar Blue, 144 h)
# Format: cell-based
# assay_setup: Homo sapiens, ZR-75-1, 144 h, arithmetic mean, read-out: ZR75-1 proliferation assay, EC50 [M] (arithmetic mean)
Some compounds, each annotated with its measured EC50.

Study these solved cases before continuing.
INSERT INTO results (smiles_repr, result) VALUES
  ('CN(c1ccccc1)c1ccc2cc(C(=O)NS(=O)(=O)c3ccccc3Cl)oc2c1', '> 2e-05 M'),
  ('CN(C)c1ccc2cc(C(=O)NS(=O)(=O)c3ccccc3-c3ccccc3)n(C)c2c1', '> 2e-05 M');

So for CC(C)c1ccc(C(C)C)c(S(=O)(=O)NC(=O)c2cc3ccc(N(C)C)cc3o2)c1 , the logged EC50 turned out to be > 2e-05 M

----------
# experimental_target: Recombinant human GST-tagged Kat6b protein (431-end)
# assay_info: Kat6b activity assay (TR-FRET, acetylation of biotinylated Histone-H4-derived peptide)
# assay_setup: 30 mins at 22° C., read-out: KAT6B activity assay IC50 [mol/l] (arithmetic mean)
pIC50: −log10 of the molar value.
readout_kind: pIC50

INSERT INTO results (compound, readout_kind, quantitative_result) VALUES
  ('CC(C)c1ccccc1S(=O)(=O)NC(=O)c1cc2ccc(N(C)C)cc2o1', 'pIC50', 6.26),
  ('CN(C)c1ccc2cc(C(=O)NS(=O)(=O)c3ccccc3OCC3CC3)oc2c1', 'pIC50', 6.88);

a: CN(C)c1ccc2cc(C(=O)NS(=O)(=O)c3ccccc3C(=O)O)oc2c1
b: CCOc1ccccc1S(=O)(=O)NC(=O)c1cc2ccc(N(C)C)cc2o1 [Example 223]
c: CCOc1cccnc1S(=O)(=O)NC(=O)c1cc2ccc(N(C)C)cc2o1
d: CN(C)c1ccc2cc(C(=O)NS(=O)(=O)c3ccccc3-c3cccc(Cl)c3)oc2c1
// ascending sort on recorded pIC50 Sort the labels as requested; that list is your answer.
c, a, b, d
(c: 6.21, a: 6.77, b: 7.00, d: 7.30)

----------
# Tested on: ZR-75-1 cells
# assay_info: Proliferation assay ZR-75-1 (Alamar Blue, 144 h)
# Assay type: cell-based
# assay_setup: Homo sapiens, ZR-75-1, 144 h, arithmetic mean, read-out: ZR75-1 proliferation assay, EC50 [M] (arithmetic mean)
readout_kind: EC50 (M)
Kindly provide the numeric value in M only, without the unit symbol.

So for CN(C)c1ccc2cc(C(=O)NS(=O)(=O)c3ccccc3OC3COC3)oc2c1 , the logged EC50 turned out to be 2e-07

So for Cc1cc(Cl)c2cccc(S(=O)(=O)NC(=O)c3cc4ccc(N(C)C)cc4o3)c2n1 , the logged EC50 turned out to be 1.13e-06

So for Cc1ccc2cccc(S(=O)(=O)NC(=O)c3cc4ccc(N(C)C)c(F)c4o3)c2n1 , the logged EC50 turned out to be 3.3e-06

----------
# Test system: ZR-75-1 cells
# assay_info: Proliferation assay ZR-75-1 (Alamar Blue, 144 h)
# Format: cell-based
# assay_setup: Homo sapiens, ZR-75-1, 144 h, arithmetic mean, read-out: ZR75-1 proliferation assay, EC50 [M] (arithmetic mean)
readout_kind: EC50

Study these solved cases before continuing.
INSERT INTO measurements (compound, readout_kind, result) VALUES
  ('CN(c1ccc2cc(C(=O)NS(=O)(=O)c3ccccc3-c3ccccc3)oc2c1)C1CCCC1 [Example 46]', 'EC50', '> 2e-05 M'),
  ('CCOc1ccccc1S(=O)(=O)NC(=O)c1cc2cc(C)c(N(C)C)cc2o1 [Example 200]', 'EC50', '> 2e-05 M');

So for CN(C)c1cc2oc(C(=O)NS(=O)(=O)c3ccccc3-c3ccccc3)cc2cc1Cl [Example 189] , the logged EC50 turned out to be > 2e-05 M
